Form field: yeast fitness (one value per entry).
B1: tRNA (parent)
chain: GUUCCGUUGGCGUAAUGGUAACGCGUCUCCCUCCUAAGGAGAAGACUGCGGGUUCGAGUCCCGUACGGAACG

variants of: B1; experiment: yeast fitness relative to wild type (ratio to wild type); higher = fitter; tRNA-Arg(CCU), competitive growth, 37 C, YPD
Variants at the floor of the assay were thinned out.
Kindly provide the number alone.

Let me know recorded yeast fitness for GUUCCGUUGGCGUAAUGGUAACGCGUCUCCGUCCUAAGGAGAAGAGUGCGGGUUCGACUCCCGUACGGAACG [C31G C46G G58C] , thanks.
0.928

Return reported yeast fitness. Input variant: GUUCCGUUGCCGAAAUGGUAACGCGUCUCCAUCCUAAGGAGAAGACUGCGGGUUCGAGUCCCGUACGGAACG [G10C U13A C31A]
0.594
